B1: TPR 5TU (parent)
chain: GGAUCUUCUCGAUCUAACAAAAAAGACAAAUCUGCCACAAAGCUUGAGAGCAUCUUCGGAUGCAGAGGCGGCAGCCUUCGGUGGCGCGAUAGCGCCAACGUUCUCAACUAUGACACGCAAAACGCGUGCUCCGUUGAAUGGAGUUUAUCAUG

- Variants of: B1
- EXPERIMENT SUMMARY: polymerase ribozyme fitness, log enrichment relative to wild type (log ratio); higher = more active; in vitro selection for triplet polymerase activity
Variants at the floor of the assay were thinned out.
MEASURED QUANTITY: polymerase ribozyme fitness (log ratio)
Answers are plain numbers.

Look over these answered cases.
U53G U61A A97G A113U : -4.18
A3U A49G G84C : -3.89
A12C G58A G84U A115U : -3.83
C18G A41U A47C A49G G86A U104G : -3.44
U31G U53A A91G A122G : -3.62
C85A C95A : -0.893
G11U C69U U134C : -1.33
U31A A40G U44G G141C : -4.06
C99G C116U : -0.76
U9G A47G : -3.86

Go through the items and report each one's polymerase ribozyme fitness (log ratio).
1. A30U U53A
2. A19U C85U
3. A12C G84A
4. U13A
5. A41C C125G

-3.18
-0.763
-0.118
-0.225
-0.815

Dear colleague, could you send me polymerase ribozyme fitness (log ratio) for each of the items below? Thanks.
1. A19C A52U
2. A37G C38G G83U C118A C123U
3. G58A G83A C87U U101G G141C
4. A12G C54U G86U C105U G143A
5. G59U G94A C118U A150G
6. C51A G94C
7. A52G G141U

1: -1.43; 2: -4.05; 3: -3.39; 4: -2.5; 5: -1.69; 6: -1.47; 7: 1

Give polymerase ribozyme fitness (log ratio) for each of the items listed below.
1. U61A C96A
2. A21G G141A
3. U56A C99G G140U
4. A19U A20C A73G G92U C116A

-1.36
1.12
-3.99
-0.142
